test: Concentration of (S)-methoprene on dog hair following oral administration (HPLC); format: in vivo, dogs; conditions: random-bred, dog, hair, po, 50 mg/kg, Dog #532; oral 50 mg/kg one time on Day 0; day 14
Property: concentration at 14 day (ng/g)
Entry rule: numbers only, all in ng/g.

Problem: # get_value(readout='concentration at 14 day', item= COC(C)(C)CCC[C@H](C)C/C=C/C(C)=C/C(=O)OC(C)C [(S)-Methoprene] )
Solution: 350

----------
experiment: Concentration of (S)-methoprene in dog blood following oral administration (HPLC); type: in vivo, dogs; settings: random-bred, whole blood, 50 mg/kg, Dog #60, oral 50 mg/kg one time on Day 0, day 3
Property: concentration at 3 day (ng/g)
Entry rule: numbers only, all in ng/g.

Problem: # get_value(readout='concentration at 3 day', item= COC(C)(C)CCC[C@H](C)C/C=C/C(C)=C/C(=O)OC(C)C [(S)-Methoprene] )
Solution: 36
